Tested on: SF-295
TEST_DESCRIPTION: Cytotoxicity against human SF295 cells after 44 hrs by MTT assay
Format: functional, cell-based
COND: SF-295, 44 h
pIC50: −log10 of the molar value.

{"COMPOUND_STRING": "COc1cc(/C=C/c2cc(O)c(/C=C/c3cccc(O)c3)c(O)c2)cc2c1O[C@]1(C)CC[C@@H](O)C(C)(C)[C@H]1C2", "pIC50": 6.10}
